These entries and their values trace back to the supplement of paper PMC12636033.

# System: 2Sb-muMax20 (muMax20 with two 1,3-bis(methyl)benzene Cys staples, A13C/A17C and Q88C/A92C, C-terminal Lys)
# experiment.description: PBM 8-mer E-score (E-score (rank enrichment, -0.5 to 0.5)); higher = stronger preferential binding
Over roughly 33,000 sequences, “E-score (rank enrichment, -0.5 to 0.5)” has its median near -0.0028; the highest 2% begin near 0.23. The sample holds the highest values, similar sequences and a random draw of the others, so the mix is not that of the screen.
Decision: PBM 8-mer E-score compared against 0.05; not below it gives true, below it gives false.

residue.codes | label.class
TGCATGCA | true
GTTGATTA | true
CATGTGCC | true
CTTAGCTA | false
AGCGCCCC | false
CATGATTA | true
AATATTTA | true
CATGATAA | true
AACGAGTG | false
CCTCTGGC | false
GGGAATCA | false
AATAGTTC | true
CCATACCG | true
AGTGGGAT | true
CGATCAGA | false
GACGTGGA | false
TACGTGGA | true
CTTGATTA | true
CCAACGCC | false
CACGTGGC | true
GACGTGGC | false
CATTAGCC | false
ACGGTCTC | false
GGTGGGAA | true
GATGATTA | false
GGCATTAA | false
ATGCCGAC | false
CAAGTTTA | true
AGCATTAT | true
GGCATCAC | true
GTGATTAA | true
CAAGATAA | true
AGCATTAC | false
GACTGCCA | false
AATAGTTG | true
AGCATTAA | true
ACAGCAAA | false
AGTGGGGA | true
AACGTGGC | true
AACGTACA | false
GGCATGCA | false
GCTGGCTA | false
CAAATTCC | true
ATAGAAAC | false
TAAGATAA | true
CAAGAGTC | false
